target: HDAC1 (Homo sapiens); assay: HDAC enzyme activity assay (fluorogenic substrate), HDAC1; assay type: biochemical; settings: comparative examples; inactive; read-out: HDAC1 IC50
Sequence (Q13547 whole entry): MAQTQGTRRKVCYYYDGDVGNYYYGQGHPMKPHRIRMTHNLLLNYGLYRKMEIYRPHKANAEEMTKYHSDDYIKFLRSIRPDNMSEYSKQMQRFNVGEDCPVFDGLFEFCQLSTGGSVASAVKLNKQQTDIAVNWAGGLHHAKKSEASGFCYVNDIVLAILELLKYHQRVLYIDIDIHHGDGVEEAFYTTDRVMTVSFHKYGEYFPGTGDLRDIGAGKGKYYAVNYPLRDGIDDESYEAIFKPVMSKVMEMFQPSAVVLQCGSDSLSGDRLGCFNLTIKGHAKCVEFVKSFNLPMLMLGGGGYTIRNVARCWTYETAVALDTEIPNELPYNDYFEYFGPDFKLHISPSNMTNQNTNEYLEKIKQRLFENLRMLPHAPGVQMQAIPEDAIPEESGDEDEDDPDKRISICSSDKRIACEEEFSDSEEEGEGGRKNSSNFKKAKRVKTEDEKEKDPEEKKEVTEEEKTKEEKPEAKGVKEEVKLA
pIC50: −log10 of the molar value.
parameterMeasured: pIC50

Tested system HDAC1 (Homo sapiens); pIC50 recorded for CCCc1nc(C)c2c(=O)[nH]c(-c3cc(S(=O)(=O)N(C)CC(=O)N(C)OC)ccc3OCC)nn12 [Comparative Example 2-01, reference compound] was < 4.70

Tested system HDAC1 (Homo sapiens); pIC50 recorded for CCCc1nc(C)c2c(=O)[nH]c(-c3cc(CC4CC(C(=O)N(C)OC)C4)ccc3OCC)nn12 (centres unmarked) [Comparative Example 2-02, reference compound] was < 4.70
